Record form. Attribute: kon. Fill in for each entry.
target: T1, Recombinant human EGFR-Fc (aa 1-645 of the extracellular domain of human EGFR fused to human Fc) (human, UniProt P00533 25-645); assay: SPR Biacore, EGFR645-Fc
T1 construct: range 1-645; bought from R&D Systems; also called EGFR645-Fc; EGFR-Fc (HER-1); not shown: human Fc
Put your answer as a value accompanied by its unit after it.

# get_value(readout='kon', item= I1-GS10-E5-GSGC pegylated (designed binder, PEG on the Cys of the GSGC tail of E5, alternative clone of I1-GS10-E5 pegylated; also called I1-GS10-E5-GSGC(4)) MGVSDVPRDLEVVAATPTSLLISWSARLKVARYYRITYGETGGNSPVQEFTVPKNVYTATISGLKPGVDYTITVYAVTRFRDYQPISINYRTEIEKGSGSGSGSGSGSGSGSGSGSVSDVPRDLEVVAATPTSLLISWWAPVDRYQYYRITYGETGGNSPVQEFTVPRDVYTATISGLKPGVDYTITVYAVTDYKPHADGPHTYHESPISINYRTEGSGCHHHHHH )
33400 M⁻¹ s⁻¹

Which kon value is on record for I1(S91C)-GS10-E5 pegylated (designed binder, PEG on Cys at position 91 of I1 (position of SEQ ID NO: 1), also called I1(S91C)-GS10-E5(7)) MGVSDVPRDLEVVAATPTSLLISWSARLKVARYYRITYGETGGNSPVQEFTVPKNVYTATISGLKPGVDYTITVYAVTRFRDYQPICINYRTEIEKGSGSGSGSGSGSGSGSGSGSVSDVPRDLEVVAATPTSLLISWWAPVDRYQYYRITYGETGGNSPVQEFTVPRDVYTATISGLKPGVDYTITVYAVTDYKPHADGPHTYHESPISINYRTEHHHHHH ?
19600 M⁻¹ s⁻¹

Consider the binder shown here: I1-GS10-E5(S62C) pegylated (designed binder, PEG on Cys at position 62 of E5 (position of SEQ ID NO: 1), also called I1-GS10-E5(S62C)(6)) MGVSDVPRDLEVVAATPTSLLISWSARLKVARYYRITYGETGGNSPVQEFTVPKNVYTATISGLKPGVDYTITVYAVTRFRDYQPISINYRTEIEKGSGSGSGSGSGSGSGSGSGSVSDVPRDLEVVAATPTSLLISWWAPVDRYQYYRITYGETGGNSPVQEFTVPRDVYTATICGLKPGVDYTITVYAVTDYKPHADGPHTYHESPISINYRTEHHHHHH What is its recorded kon?
17800 M⁻¹ s⁻¹
